# Measured target: EGFR (human) (UniProt P00533)
# Sequence (P00533 whole entry, looked up): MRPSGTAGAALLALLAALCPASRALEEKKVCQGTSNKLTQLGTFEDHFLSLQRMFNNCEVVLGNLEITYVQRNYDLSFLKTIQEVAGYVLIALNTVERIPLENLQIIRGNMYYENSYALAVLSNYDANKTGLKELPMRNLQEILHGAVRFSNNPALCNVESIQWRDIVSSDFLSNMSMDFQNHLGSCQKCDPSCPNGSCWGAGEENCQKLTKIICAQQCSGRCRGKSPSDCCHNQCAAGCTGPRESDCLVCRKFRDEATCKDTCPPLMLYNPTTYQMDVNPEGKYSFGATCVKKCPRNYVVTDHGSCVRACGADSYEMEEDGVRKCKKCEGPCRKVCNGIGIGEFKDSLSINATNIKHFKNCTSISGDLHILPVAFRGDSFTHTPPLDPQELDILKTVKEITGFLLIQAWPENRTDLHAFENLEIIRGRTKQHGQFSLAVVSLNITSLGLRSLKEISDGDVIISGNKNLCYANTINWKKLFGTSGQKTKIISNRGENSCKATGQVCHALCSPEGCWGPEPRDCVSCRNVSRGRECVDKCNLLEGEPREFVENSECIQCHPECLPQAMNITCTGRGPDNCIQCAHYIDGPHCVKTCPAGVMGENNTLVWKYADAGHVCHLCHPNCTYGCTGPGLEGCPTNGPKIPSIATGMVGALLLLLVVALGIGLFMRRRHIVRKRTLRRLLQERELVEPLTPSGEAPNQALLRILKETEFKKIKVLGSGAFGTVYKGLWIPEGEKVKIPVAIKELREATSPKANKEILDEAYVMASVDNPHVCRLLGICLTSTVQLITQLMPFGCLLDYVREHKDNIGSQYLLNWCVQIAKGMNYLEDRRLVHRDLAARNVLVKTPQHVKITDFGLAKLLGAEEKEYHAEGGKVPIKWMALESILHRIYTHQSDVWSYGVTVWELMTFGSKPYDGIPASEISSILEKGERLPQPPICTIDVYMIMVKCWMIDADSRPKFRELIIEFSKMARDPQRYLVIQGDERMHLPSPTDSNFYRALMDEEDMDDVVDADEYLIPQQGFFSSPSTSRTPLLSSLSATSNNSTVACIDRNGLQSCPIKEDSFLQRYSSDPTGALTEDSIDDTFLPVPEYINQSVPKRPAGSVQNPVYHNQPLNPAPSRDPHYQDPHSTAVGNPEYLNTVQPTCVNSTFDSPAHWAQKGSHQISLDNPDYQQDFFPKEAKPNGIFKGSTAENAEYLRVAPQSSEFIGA
# Condition context: hop-62
In this section, each of the compounds is paired with its reported pIC50.
To interpret pIC50, take it as minus log10 of a concentration measured in moles per litre.

{"columns": ["Compound", "Experimental endpoint", "Result value"],
 "data": [
  ["O=C(NCCCc1ccccc1)c1ccc(NCc2cc(O)ccc2O)cc1", "pIC50", 4.80],
  ["O=C(NCc1ccccc1)c1ccc(NCc2cc(O)ccc2O)cc1", "pIC50", 4.70],
  ["O=C(NCCCc1ccccc1)c1cc(NCc2cc(O)ccc2O)ccc1O", "pIC50", 4.66],
  ["O=C(NCCc1ccccn1)c1cc(NCc2cc(O)ccc2O)ccc1O", "pIC50", 4.70],
  ["O=C(NCCc1ccc(Cl)cc1)c1cc(NCc2cc(O)ccc2O)ccc1O", "pIC50", 4.77]
]}

Per the record, O=C(NCCc1ccc(Br)cc1)c1cc(NCc2cc(O)ccc2O)ccc1O has pIC50 of 4.74

Entry under test: O=C(NCCc1ccccc1)c1cc(NCc2cc(O)ccc2O)ccc1O . Its pIC50 was 4.70

The reported value for COc1ccc(CCNC(=O)c2cc(NCc3cc(O)ccc3O)ccc2O)cc1 in terms of pIC50 is 4.92

The compound identified as O=C(NC1CCc2ccccc2C1)c1cc(NCc2cc(O)ccc2O)ccc1O (stereo unspecified) registered its pIC50 at 4.77

The reported value for O=C(NCCc1ccccc1)c1ccc(NCc2cc(O)ccc2O)cc1 in terms of pIC50 is 4.89

Just so you know, measured pIC50 for CCCCCCCCCCCCNC(=O)c1cc(NCc2cc(O)ccc2O)ccc1O came out at 5.42

###

# Measured target: EGFR (human) (UniProt P00533)
# Condition context: uacc-62
# maps each entry to its pIC50
// field semantics: pIC50 = negative decimal log of concentration (mol/L)

{"columns": ["Record smiles", "pIC50"],
 "data": [
  ["O=C(NCCCc1ccccc1)c1ccc(NCc2cc(O)ccc2O)cc1", 5.10]
]}

The molecule listed as O=C(NCCc1ccc(F)cc1)c1cc(NCc2cc(O)ccc2O)ccc1O has a reported pIC50 of 5.11

Reported pIC50 ( CCCCCCCCCCCCNC(=O)c1cc(NCc2cc(O)ccc2O)ccc1O ) = 5.49

###

# key: entry, value: pIC50
# Measured target: EGFR (human) (UniProt P00533)
# Condition context: mda-mb-435
Note: pIC50 values are expressed as the negative base-10 logarithm of concentration in M.

{"columns": ["Molecule", "Experimental endpoint", "Result value"],
 "data": [
  ["COc1ccc(CCNC(=O)c2cc(NCc3cc(O)ccc3O)ccc2O)cc1", "pIC50", 4.80]
]}

The value of pIC50 measured for the molecule O=C(NCc1ccccc1)c1cc(NCc2cc(O)ccc2O)ccc1O turned out to be 4.52

Record O=C(NCCc1ccccc1)c1cc(NCc2cc(O)ccc2O)ccc1O . Reported pIC50: 4.72

Entry under test: O=C(NCCc1ccc(O)cc1)c1cc(NCc2cc(O)ccc2O)ccc1O . Its pIC50 was 4.64

The reported pIC50 of the molecule O=C(NCCc1ccccn1)c1cc(NCc2cc(O)ccc2O)ccc1O was 4.89

pIC50 in this record for O=C(NCCc1ccc(Cl)cc1)c1cc(NCc2cc(O)ccc2O)ccc1O : 4.70

The measured pIC50 associated with O=C(NCc1ccccc1)c1ccc(NCc2cc(O)ccc2O)cc1 reads 4.92
